Consider the following compounds and their measured Plant response rating, Barnyardgrass readings.
- Test system: barnyardgrass
- RUN_DESCRIPTION: Test B pre-/postemergence herbicide test
- Type: in vivo, Echinochloa crus-galli
- RUN_CONDITIONS: preemergence, 125 g ai/ha; 0 to 100 scale, 0 is no effect, 100 is complete control
READOUT_KIND: Plant response rating, Barnyardgrass

>>> reading("CCn1nc(C(C)(C)C)cc1C(=O)Nc1cc(C(=O)NCCOC)ccn1 [Compound 161]")
50
>>> reading("C=Cn1nc(C(C)(C)C)cc1C(=O)Nc1cccc(C(C)=NO)c1 [Compound 114]")
50
>>> reading("CCn1nc(C(C)(C)C)cc1C(=O)Nc1cccc2c1CCN(C1CC1)C2=O [Compound 64]")
50
